Consider the following compounds; for each one, report its MIC90.
Tested on: Staphylococcus aureus
protocol-text: Antibacterial activity against methicillin-susceptible Staphylococcus aureus isolate by CLSI dilution method
Assay type: functional
Write the number in µg/mL without appending the unit.

Note to self: MIC90 of `CN[C@H](CC(C)C)C(=O)N[C@H]1C(=O)N[C@@H](CC(N)=O)C(=O)N[C@H]2C(=O)N[C@H]3C(=O)N[C@H](C(=O)N[C@H](C(=O)O)c4cc(O)cc(O)c4-c4cc3ccc4O)[C@H](O)c3ccc(c(Cl)c3)Oc3cc2cc(c3O[C@@H]2O[C@H](CO)[C@@H](O)[C@H](O)[C@H]2O[C@H]2C[C@](C)(N)[C@H](O)[C@H](C)O2)Oc2ccc(cc2Cl)[C@H]1O` with Staphylococcus aureus was 1

Form field, MIC90 with Staphylococcus aureus, item `CC(=O)NC[C@H]1CN(c2ccc(N3CCOCC3)c(F)c2)C(=O)O1` : 4

MIC90 on Staphylococcus aureus for `Cc1onc(-c2ccccc2)c1C(=O)N[C@@H]1C(=O)N2[C@@H]1SC(C)(C)[C@@H]2C(=O)O` is 0.5

---

Tested on: Staphylococcus sp.
protocol-text: Antibacterial activity against methicillin-resistant coagulase-negative Staphylococcus sp. by CLSI dilution method
Assay type: functional
Provide the recorded MIC90 for the entries that follow.

// assay Staphylococcus sp., entry `Cc1onc(-c2ccccc2)c1C(=O)N[C@@H]1C(=O)N2[C@@H]1SC(C)(C)[C@@H]2C(=O)O` , MIC90 value = > 128 µg/mL

Field MIC90 (system: Staphylococcus sp.) for entry `CC[C@H]1OC(=O)[C@H](C)[C@@H](O[C@H]2C[C@@](C)(OC)[C@@H](O)[C@H](C)O2)[C@H](C)[C@@H](O[C@@H]2O[C@H](C)C[C@H](N(C)C)[C@H]2O)[C@](C)(O)C[C@@H](C)C(=O)[C@H](C)[C@@H](O)[C@]1(C)O` = > 128 µg/mL

Record `CCC[C@@H]1C[C@@H](C(=O)N[C@@H]([C@H]2O[C@H](SC)[C@H](O)[C@@H](O)[C@H]2O)[C@H](C)Cl)N(C)C1` has Staphylococcus sp. MIC90 equal to > 128 µg/mL
